pKi: −log10 of the molar value.
pKi, D(2) dopamine receptor (Homo sapiens, UniProt P14416), per-entry values.
METRIC: pKi

CCCN(CCC)C1COc2c(cccc2-c2ccoc2)C1 (stereo not drawn) :: 7.32
CCCN(CCC)C1COc2c(cccc2-c2ccsc2)C1 (stereo not drawn) :: 6.40
CCCN(CCC)C1COc2c(O)cccc2C1 (stereo not drawn) :: 6.89
CCCN(CCC)C1COc2c(cccc2C(=O)c2ccoc2)C1 (stereo not drawn) :: 5.87

---

- TARGET_OF_ASSAY: 5-hydroxytryptamine receptor 1A (Rattus norvegicus, UniProt P19327)
- Sequence (P19327 whole entry): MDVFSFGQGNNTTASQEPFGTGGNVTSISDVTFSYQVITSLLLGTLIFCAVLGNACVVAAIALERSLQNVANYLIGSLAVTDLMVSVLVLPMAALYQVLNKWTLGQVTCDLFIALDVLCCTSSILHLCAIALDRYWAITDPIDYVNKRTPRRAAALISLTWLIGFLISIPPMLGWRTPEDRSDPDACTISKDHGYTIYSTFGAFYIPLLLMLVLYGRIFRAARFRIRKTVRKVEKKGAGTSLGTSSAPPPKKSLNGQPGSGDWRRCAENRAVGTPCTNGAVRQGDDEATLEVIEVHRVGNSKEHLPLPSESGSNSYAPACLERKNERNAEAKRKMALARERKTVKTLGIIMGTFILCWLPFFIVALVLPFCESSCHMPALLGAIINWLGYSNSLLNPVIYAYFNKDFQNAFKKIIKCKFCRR
pKi: −log10 of the molar value.
METRIC: pKi

CCCN(CCC)C1COc2c(cccc2C(=O)c2ccccc2)C1 (stereo unspecified) :: 8.40
CCCN(CCC)C1COc2c(cccc2C(=O)c2ccc(OC)cc2)C1 (stereo unspecified) :: 7.98
CCCN(CCC)C1COc2c(cccc2C(=O)c2ccsc2)C1 (stereo unspecified) :: 8.14
CCCN(CCC)C1COc2c(cccc2-c2ccsc2)C1 (stereo unspecified) :: 8.96
CCCN(CCC)C1COc2cccc(O)c2C1 (stereo unspecified) :: 7.08

---

pKi, D(2) dopamine receptor (Homo sapiens, UniProt P14416), per-entry values.
pKi: −log10 of the molar value.
METRIC: pKi

CCCN(CCC)C1COc2cccc(O)c2C1 (centres undefined) :: < 5.52
CCCN(CCC)C1COc2c(cccc2C(=O)c2ccccc2)C1 (centres undefined) :: < 6.00
CCCN(CCC)C1COc2c(cccc2C(=O)c2ccc(C(C)=O)cc2)C1 (centres undefined) :: < 6.00
CCCN(CCC)C1COc2c(cccc2C(=O)c2ccsc2)C1 (centres undefined) :: < 6.00
